SYSTEM_UNDER_TEST: fMet-Leu-Phe receptor (Homo sapiens, UniProt P21462)
Sequence (P21462 whole entry): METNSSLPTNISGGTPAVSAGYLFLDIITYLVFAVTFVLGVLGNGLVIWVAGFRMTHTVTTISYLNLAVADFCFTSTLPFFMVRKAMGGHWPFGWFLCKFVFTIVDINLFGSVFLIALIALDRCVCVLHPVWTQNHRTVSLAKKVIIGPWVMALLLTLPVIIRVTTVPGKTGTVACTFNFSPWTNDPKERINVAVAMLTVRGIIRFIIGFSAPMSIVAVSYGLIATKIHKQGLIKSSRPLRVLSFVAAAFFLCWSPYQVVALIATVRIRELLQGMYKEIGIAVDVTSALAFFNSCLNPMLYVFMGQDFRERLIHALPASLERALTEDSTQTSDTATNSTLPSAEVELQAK
ASSAY_METHOD_TEXT: Antagonist activity at human recombinant FPR1 in expressed in HEK293 cells assessed as inhibition of FMLP-stimulated intracellular calcium mobilisation after 1 hr by FLIPR assay
Type: functional, cell-based
pIC50: −log10 of the molar value.
Reported values of pIC50 for individual entries
EXPERIMENTAL_READOUT: pIC50

>>> observed_result("Cc1ccc(S(=O)(=O)Nc2c(C(=O)N[C@@H](C)C(C)(C)C)c(C)nn2C(C)C)cc1")
6.00
>>> observed_result("Cc1ccc(S(=O)(=O)Nc2c(C(=O)N[C@@H](C)C(C)(C)C)c(C)nn2C(C)(C)C)cc1")
5.80
>>> observed_result("Cc1ccc(S(=O)(=O)Nc2c(C(=O)N[C@@H](C)C(C)(C)C)c(C)nn2C2CCOC2)cc1 (some centres undefined)")
6.00
>>> observed_result("CCC(CC)NC(=O)c1c(C)nn(C(C)C)c1NS(=O)(=O)c1ccc(C)cc1")
4.60
>>> observed_result("COCC(C)n1nc(C)c(C(=O)N[C@@H](C)C(C)(C)C)c1NS(=O)(=O)c1ccc(C)cc1 (some centres undefined)")
5.60
>>> observed_result("Cc1ccc(S(=O)(=O)Nc2c(C(=O)N[C@@H](C)C(C)(C)C)c(C)nn2C2CCS(=O)(=O)CC2)cc1")
5.00
>>> observed_result("Cc1ccc(S(=O)(=O)Nc2c(C(=O)N[C@@H](C)C(C)(C)C)c(C)nn2C2CCC2)cc1")
6.70
>>> observed_result("COCCC(C)n1nc(C)c(C(=O)N[C@@H](C)C(C)(C)C)c1NS(=O)(=O)c1ccc(C)cc1 (some centres undefined)")
6.50
>>> observed_result("Cc1ccc(S(=O)(=O)Nc2c(C(=O)N[C@@H](C)C(C)(C)C)c(C)nn2C2CCCCC2)cc1")
7.50

###

ASSAY_METHOD_TEXT: Clearance in Sprague-Dawley rat at 2 mg/kg, iv
MEASUREMENT_CONDITIONS: in vivo
Reported clearance values follow for various compounds
EXPERIMENTAL_READOUT: clearance (mL/min/kg)

>>> observed_result("CO[C@H]1CC[C@@H](n2nc(C)c(C(=O)N[C@@H](C)C(C)(C)C)c2NS(=O)(=O)c2ccc(C)cc2)CC1")
5.5
>>> observed_result("Cc1nn(-c2ccc(F)cc2)c(NS(=O)(=O)c2ccc(C#N)cc2)c1C(=O)N[C@@H](C)C(C)(C)C")
42
>>> observed_result("Cc1ccc(S(=O)(=O)Nc2c(C(=O)N[C@@H](C)C(C)(C)C)c(C)nn2-c2ccccc2)cc1")
42
>>> observed_result("Cc1ccc(S(=O)(=O)Nc2c(C(=O)N[C@@H](C)C(C)(C)C)c(C)nn2C(C)C)cc1")
4

###

Test system: THP-1
ASSAY_METHOD_TEXT: Cytotoxicity against human THP1 cells
Assay type: cell-based
pIC50: −log10 of the molar value.
EXPERIMENTAL_READOUT: pIC50

>>> observed_result("Cc1nn(C2CCOCC2)c(NS(=O)(=O)c2ccc(C3CC3)cc2)c1C(=O)N[C@@H](C)C(C)(C)C")
"< 4.30"
>>> observed_result("CO[C@H]1CC[C@@H](n2nc(C)c(C(=O)N[C@@H](C)C(C)(C)C)c2NS(=O)(=O)c2ccc(C)cc2)CC1")
"< 4.30"
